Entries and their measured pKi follow.
# targetUnderTest: T1, human EphA2 (human, UniProt P29317 25-534, limits assumed)
# T1 construct: also called Eph receptor tyrosine kinase A2
# T1 sequence (P29317 25-534 limits assumed): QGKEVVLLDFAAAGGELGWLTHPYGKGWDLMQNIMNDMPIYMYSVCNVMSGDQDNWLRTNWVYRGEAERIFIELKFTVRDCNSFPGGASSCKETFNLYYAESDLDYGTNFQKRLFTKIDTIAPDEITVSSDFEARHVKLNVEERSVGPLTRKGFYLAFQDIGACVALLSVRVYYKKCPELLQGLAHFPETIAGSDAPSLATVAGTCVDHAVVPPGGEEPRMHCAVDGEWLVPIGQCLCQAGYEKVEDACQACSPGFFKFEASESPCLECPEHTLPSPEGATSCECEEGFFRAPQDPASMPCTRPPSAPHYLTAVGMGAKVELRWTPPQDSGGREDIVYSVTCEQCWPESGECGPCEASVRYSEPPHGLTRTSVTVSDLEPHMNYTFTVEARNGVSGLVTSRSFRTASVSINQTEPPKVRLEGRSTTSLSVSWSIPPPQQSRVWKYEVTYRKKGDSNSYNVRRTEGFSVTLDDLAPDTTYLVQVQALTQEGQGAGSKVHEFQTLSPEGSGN
# test: fluorescence polarisation competition with tracer BCY90, human EphA2, mean of 6
Starred links: 1 amine or outer side, 2 acyl side, 3 side chain; linkers in the order of their positions; H or OH if unused. Positions of bridges follow the written chain, without caps; N, C: chain ends. Non-standard residues stand in square brackets, D forms with d. No end group written: not given here. TATA = O=C(CC[*:1])N1CN(C(=O)CC[*:2])CN(C(=O)CC[*:3])C1; d1Nal = N[C@H](Cc1cccc2ccccc12)C(=O)O; Hyp = O=C(O)[C@@H]1C[C@@H](O)CN1; hArg = N=C(N)NCCCC[C@H](N)C(=O)O; 2Thi = N[C@@H](Cc1cccs1)C(=O)O; Cba = N[C@@H](CC1CCC1)C(=O)O
The meaning of pKi here: minus log10 of the concentration in molar units.

A[hArg]DC[Hyp]LVNPLCLEP[d1Nal]WTC-NH2 (linker 4-11-18 via TATA, Bicyclic peptide cyclised with TATA) [BCY13118] ... 8.27
A[hArg]DC[Hyp][Cba]VNPLCLEP[dD]WTC-NH2 (linker 4-11-18 via TATA, Bicyclic peptide cyclised with TATA) [BCY12863] ... 8.23

# evaluate next
Form: binder = A[hArg]DC[Hyp]LVNPLCL[2Thi]P[dD]W[hArg]C-NH2 (linker 4-11-18 via TATA, Bicyclic peptide cyclised with TATA) [BCY13922] ; pKi = 8.94
